Tested on: HCT116
assay_method_text: Cell viability assay on HCT116
Type: cell-based, human
measurement_context: remaining viability, 20 μM drug, normalized by blank control, three repeats
measured_parameter: HCT116 Cell Viability (%)

>>> observed_result("Cc1cc(-c2ccc(/N=N/c3ccc4c(S(=O)(=O)O)cc(S(=O)(=O)O)c(N)c4c3O)c(C)c2)ccc1/N=N/c1ccc2c(S(=O)(=O)O)cc(S(=O)(=O)O)c(N)c2c1O [Evans Blue]")
34.8
>>> observed_result("Cc1ccccc1-c1cc(N2CCN(C)CC2)ncc1N(C)C(=O)C(C)(C)c1cc(C(F)(F)F)cc(C(F)(F)F)c1 [Netupitant]")
2.8
>>> observed_result("CC[C@@]1(O)C[C@H](O[C@H]2C[C@H](N(C)C)[C@H](O[C@H]3C[C@H](O)[C@H](O[C@H]4CCC(=O)[C@H](C)O4)[C@H](C)O3)[C@H](C)O2)c2c(cc3c(c2O)C(=O)c2c(O)cccc2C3=O)[C@H]1C(=O)OC [Aclacinomycin A]")
27.9
>>> observed_result("CO/N=C1\\C[C@]2(C[C@@H]3C[C@@H](C/C=C(\\C)C[C@@H](C)/C=C/C=C4\\CO[C@@H]5[C@H](O)C(C)=C[C@@H](C(=O)O3)[C@]45O)O2)O[C@H](/C(C)=C/C(C)C)[C@H]1C [Moxidectin]")
1.7
>>> observed_result("C#C[C@]1(O)CC[C@H]2[C@@H]3CCc4cc(O)ccc4[C@H]3CC[C@@]21C [Ethynyl Estradiol]")
47.4
>>> observed_result("O=C(c1c2ccccc2cc2ccccc12)N1CCC(N2CCC[C@@H](C(=O)N3CCOCC3)C2)CC1 [CP-640186]")
84.3
>>> observed_result("Cc1ccc(C(=O)Nc2ccc(CN3CCN(C)CC3)c(C(F)(F)F)c2)cc1C#Cc1cnc2cccnn12 [Ponatinib]")
18.5

###

Test system: AsPC-1
assay_method_text: Cell viability assay (MTT) on AsPC-1
measurement_context: Homo sapiens, ASPC1, read-out: IC50, Tc, tioconazole alone, AsPC-1 (Table 9)
pIC50: −log10 of the molar value.
measured_parameter: pIC50

>>> observed_result("Clc1ccc(C(Cn2ccnc2)OCc2ccsc2Cl)c(Cl)c1 (stereo not shown)")
4.87

###

Tested on: AsPC-1
assay_method_text: Cell viability assay (MTT) on AsPC-1
measurement_context: remaining viability, 20 μM drug, normalized by blank control, three repeats
measured_parameter: AsPC-1 Cell Viability (%)

>>> observed_result("CO/N=C1\\C[C@]2(C[C@@H]3C[C@@H](C/C=C(\\C)C[C@@H](C)/C=C/C=C4\\CO[C@@H]5[C@H](O)C(C)=C[C@@H](C(=O)O3)[C@]45O)O2)O[C@H](/C(C)=C/C(C)C)[C@H]1C [Moxidectin]")
7.8
>>> observed_result("Cc1ccc(C(=O)Nc2ccc(CN3CCN(C)CC3)c(C(F)(F)F)c2)cc1C#Cc1cnc2cccnn12 [Ponatinib]")
47.2
>>> observed_result("CC[C@@]1(O)C[C@H](O[C@H]2C[C@H](N(C)C)[C@H](O[C@H]3C[C@H](O)[C@H](O[C@H]4CCC(=O)[C@H](C)O4)[C@H](C)O3)[C@H](C)O2)c2c(cc3c(c2O)C(=O)c2c(O)cccc2C3=O)[C@H]1C(=O)OC [Aclacinomycin A]")
48.3
>>> observed_result("Cc1cc(-c2ccc(/N=N/c3ccc4c(S(=O)(=O)O)cc(S(=O)(=O)O)c(N)c4c3O)c(C)c2)ccc1/N=N/c1ccc2c(S(=O)(=O)O)cc(S(=O)(=O)O)c(N)c2c1O [Evans Blue]")
33.6
>>> observed_result("O=C(c1c2ccccc2cc2ccccc12)N1CCC(N2CCC[C@@H](C(=O)N3CCOCC3)C2)CC1 [CP-640186]")
87.4
>>> observed_result("Cc1ccccc1-c1cc(N2CCN(C)CC2)ncc1N(C)C(=O)C(C)(C)c1cc(C(F)(F)F)cc(C(F)(F)F)c1 [Netupitant]")
42.9
